# Test system: 883617-216-R-J1-PDC tumor spheroids, viability;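 note: spheroids exposed to agents for 7 days before the viability read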
# ASSAY_INFO: Anticancer human tumor 883617-216-R-J1-PDC patient-derived bladder carcinoma cell line growth inhibition [PI3K]
# TEST_PARAMETERS: curve of first compound; second compound 0.0316 µM; spheroids with HUVEC and MSC
API: label(entry) gives True if the entry's IC50 is strictly smaller than 500 nM; on equality or larger values it gives False.

Please state whether IC50 is below 500 nM for CC(Cn1ccc(-c2ccc(C#N)c(Cl)c2)n1)NC(=O)c1cc(C(C)O)[nH]n1 (stereo unspecified) + COc1c(OCCCN2CCOCC2)ccc2c3n(c(=NC(=O)c4cnc(N)nc4)nc12)CCN3
True

Please state whether IC50 is below 500 nM for CC(C)n1nc(-c2ccc3oc(N)nc3c2)c2c(N)ncnc21 + CC(Nc1ccc2c(c1)OCCn1cc(N3C(=O)OCC3C(F)F)nc1-2)C(N)=O
True

Please state whether IC50 is below 500 nM for CCCS(=O)(=O)Nc1ccc(F)c(C(=O)c2c[nH]c3ncc(-c4ccc(Cl)cc4)cc23)c1F + COc1c(OCCCN2CCOCC2)ccc2c3n(c(=NC(=O)c4cnc(N)nc4)nc12)CCN3
True

Please state whether IC50 is below 500 nM for CCCS(=O)(=O)Nc1ccc(F)c(C(=O)c2c[nH]c3ncc(-c4ccc(Cl)cc4)cc23)c1F + Cc1nc(NC(=O)N2CCCC2C(N)=O)sc1-c1ccnc(C(C)(C)C(F)(F)F)c1
False

Please state whether IC50 is below 500 nM for C#Cc1c(F)ccc2cc(O)cc(-c3ncc4c(N5CC6CCC(C5)N6)nc(OCC56CCCN5CC(F)C6)nc4c3F)c12 (stereo unspecified) + CC(Nc1ccc2c(c1)OCCn1cc(N3C(=O)OCC3C(F)F)nc1-2)C(N)=O
False

Please state whether IC50 is below 500 nM for Cn1nccc1Nc1nccc(-c2ccn(C(CO)c3ccc(Cl)c(F)c3)c(=O)c2)n1 (stereo unspecified) + CC(Nc1ccc2c(c1)OCCn1cc(N3C(=O)OCC3C(F)F)nc1-2)C(N)=O
False

Please state whether IC50 is below 500 nM for CC(Cn1ccc(-c2ccc(C#N)c(Cl)c2)n1)NC(=O)c1cc(C(C)O)[nH]n1 (stereo unspecified) + CC(Nc1ccc2c(c1)OCCn1cc(N3C(=O)OCC3C(F)F)nc1-2)C(N)=O
False

Please state whether IC50 is below 500 nM for CC(C)NCC(C(=O)N1CCN(c2ncnc3c2C(C)CC3O)CC1)c1ccc(Cl)cc1 (stereo unspecified) + Cc1nc(NC(=O)N2CCCC2C(N)=O)sc1-c1ccnc(C(C)(C)C(F)(F)F)c1
True

Please state whether IC50 is below 500 nM for CC(C)n1nc(-c2ccc3oc(N)nc3c2)c2c(N)ncnc21 + CC(Nc1ncnc2nc[nH]c12)c1cc2cccc(Cl)c2c(=O)n1-c1ccccc1
True

Please state whether IC50 is below 500 nM for CC(C)NCC(C(=O)N1CCN(c2ncnc3c2C(C)CC3O)CC1)c1ccc(Cl)cc1 (stereo unspecified) + CC(Nc1ccc2c(c1)OCCn1cc(N3C(=O)OCC3C(F)F)nc1-2)C(N)=O
True

Please state whether IC50 is below 500 nM for Cn1cnc2c(F)c(Nc3ccc(Br)cc3Cl)c(C(=O)NOCCO)cc21 + CC(Nc1ccc2c(c1)OCCn1cc(N3C(=O)OCC3C(F)F)nc1-2)C(N)=O
True

Please state whether IC50 is below 500 nM for CCCS(=O)(=O)Nc1ccc(F)c(C(=O)c2c[nH]c3ncc(-c4ccc(Cl)cc4)cc23)c1F + CC(Nc1ccc2c(c1)OCCn1cc(N3C(=O)OCC3C(F)F)nc1-2)C(N)=O
False

Please state whether IC50 is below 500 nM for CC1(C)CCC(CN2CCN(c3ccc(C(=O)NS(=O)(=O)c4ccc(NCC5CCOCC5)c([N+](=O)[O-])c4)c(Oc4cnc5[nH]ccc5c4)c3)CC2)=C(c2ccc(Cl)cc2)C1 + CC(Nc1ncnc2nc[nH]c12)c1cc2cccc(Cl)c2c(=O)n1-c1ccccc1
False

Please state whether IC50 is below 500 nM for Cn1cnc2c(F)c(Nc3ccc(Br)cc3Cl)c(C(=O)NOCCO)cc21 + Cc1nc(NC(=O)N2CCCC2C(N)=O)sc1-c1ccnc(C(C)(C)C(F)(F)F)c1
True

Please state whether IC50 is below 500 nM for CC(Cn1ccc(-c2ccc(C#N)c(Cl)c2)n1)NC(=O)c1cc(C(C)O)[nH]n1 (stereo unspecified) + Cc1nc(NC(=O)N2CCCC2C(N)=O)sc1-c1ccnc(C(C)(C)C(F)(F)F)c1
False

Please state whether IC50 is below 500 nM for CC1(C)CCC(Nc2ncc(C(F)(F)F)c(-c3c[nH]c4c(P(C)(C)=O)c(C#N)ccc34)n2)CN1 (stereo unspecified) + Cc1nc(NC(=O)N2CCCC2C(N)=O)sc1-c1ccnc(C(C)(C)C(F)(F)F)c1
True

Please state whether IC50 is below 500 nM for Cn1cnc2c(F)c(Nc3ccc(Br)cc3Cl)c(C(=O)NOCCO)cc21 + CC(Nc1ncnc2nc[nH]c12)c1cc2cccc(Cl)c2c(=O)n1-c1ccccc1
True

Please state whether IC50 is below 500 nM for CC1(C)CCC(CN2CCN(c3ccc(C(=O)NS(=O)(=O)c4ccc(NCC5CCOCC5)c([N+](=O)[O-])c4)c(Oc4cnc5[nH]ccc5c4)c3)CC2)=C(c2ccc(Cl)cc2)C1 + COc1c(OCCCN2CCOCC2)ccc2c3n(c(=NC(=O)c4cnc(N)nc4)nc12)CCN3
True

Please state whether IC50 is below 500 nM for CC(C)NCC(C(=O)N1CCN(c2ncnc3c2C(C)CC3O)CC1)c1ccc(Cl)cc1 (stereo unspecified) + CC(Nc1ncnc2nc[nH]c12)c1cc2cccc(Cl)c2c(=O)n1-c1ccccc1
False

Please state whether IC50 is below 500 nM for C[C@@H](NC(=O)c1ncnc(N)c1Cl)c1ncc(C(=O)Nc2cc(C(F)(F)F)c(Cl)cn2)s1 + CC(Nc1ncnc2nc[nH]c12)c1cc2cccc(Cl)c2c(=O)n1-c1ccccc1
False

Source of measurements: PubChem BioAssay AID1963973
